system: CP262; test: qHTS profiling for inhibitors of Plasmodium falciparum proliferation (AID 504749); also: nearly all actives have a fitted effect of over 60% in size; conditions: P. falciparum in erythrocytes, SYBR Green DNA, 72 h; series mostly up to 28.7 µM
Records with an inconclusive call do not appear. Calls of active or inactive are those of the source. Calls follow the shape of the dose curve; as a rule, active = well fitted inhibition curve with a large enough effect; inconclusive = small, poorly fitted or top-dose-only effect; inactive = flat fitted curve, though single readings scatter.
Return exactly one item of active, inactive

QUERY: Please share the test call associated with "O=CCCCC=O" .
RESULT: inactive

QUERY: Please share the test call associated with "CC1=C(/C=C/C(C)=C/C=C/C(C)=C/CO)C(C)(C)CCC1" .
RESULT: inactive

QUERY: Please share the test call associated with "CCOC(=O)C1=C(C)NC(C)=C(C(=O)OCC)C1c1ccccc1C=CC(=O)OC(C)(C)C" .
RESULT: active

QUERY: Please share the test call associated with "CCCCC(=O)O[C@]1(C(=O)CO)[C@H](C)C[C@H]2[C@@H]3CCC4=CC(=O)C=C[C@]4(C)[C@@]3(F)[C@@H](O)C[C@@]21C" .
RESULT: inactive

QUERY: Please share the test call associated with "CCCCCCCC(=O)O" .
RESULT: inactive

QUERY: Please share the test call associated with "CC1(C)S[C@@H]2[C@H](NC(=O)[C@@H](NC(=O)N3CCNC3=O)c3ccccc3)C(=O)N2[C@H]1C(=O)O" .
RESULT: inactive
